Listing: Bliss excess of selected compounds
- System: DG-75 (Burkitt's Lymphoma);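 note: after 72 h of two-drug dosing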
- TEST_DESCRIPTION: Bliss excess, mean over the matrix (fraction); higher = more synergy

Example entries and their recorded answers appear below.
CC(=O)c1c(C)c2cnc(Nc3ccc(N4CCNCC4)cn3)nc2n(C2CCCC2)c1=O [Palbociclib] + Cn1cnc2c(F)c(Nc3ccc(Br)cc3Cl)c(C(=O)NOCCO)cc21 [Selumetinib] (first compound max 10 µM, 7x7, partner max 10 µM) :: 0.028
C[C@@H]1COCCN1c1cc(C2([S@](C)(=N)=O)CC2)nc(-c2ccnc3[nH]ccc23)n1 [AZD6738] + O=C(c1cc(Cc2n[nH]c(=O)c3ccccc23)ccc1F)N1CCN(C(=O)C2CC2)CC1 [Olaparib] (first compound max 10 µM, 7x7, partner max 10 µM) :: -0.0619
Cc1nc(Nc2ncc(C(=O)Nc3c(C)cccc3Cl)s2)cc(N2CCN(CCO)CC2)n1 [Dasatinib] + CC(=O)Nc1cccc(-n2c(=O)n(C3CC3)c(=O)c3c(Nc4ccc(I)cc4F)n(C)c(=O)c(C)c32)c1 [Trametinib] (first compound max 2 µM, 7x7, partner max 1 µM) :: 0.0387

Observed Bliss excess on DG-75 (Burkitt's Lymphoma) for CC(=O)c1c(C)c2cnc(Nc3ccc(N4CCNCC4)cn3)nc2n(C2CCCC2)c1=O [Palbociclib] + CC1(C)CCC(CN2CCN(c3ccc(C(=O)NS(=O)(=O)c4ccc(NCC5CCOCC5)c([N+](=O)[O-])c4)c(Oc4cnc5[nH]ccc5c4)c3)CC2)=C(c2ccc(Cl)cc2)C1 [Venetoclax] (first compound max 10 µM, 7x7, partner max 1 µM) , please.
-0.0084

Observed Bliss excess on DG-75 (Burkitt's Lymphoma) for NC1(C(=O)N[C@@H](CCO)c2ccc(Cl)cc2)CCN(c2ncnc3[nH]ccc23)CC1 [Capivasertib] + CC(=O)c1c(C)c2cnc(Nc3ccc(N4CCNCC4)cn3)nc2n(C2CCCC2)c1=O [Palbociclib] (first compound max 10 µM, 7x7, partner max 10 µM) , please.
0.0406

Observed Bliss excess on DG-75 (Burkitt's Lymphoma) for COc1nnc2ccc(N3CCC(c4ccc(OCCN5CCN(C)C(=O)[C@H]5C)cc4)CC3)nn12 [AZD5153] + C[C@@H]1COCCN1C2=NC(=NC(=C2)C3(CC3)[S@](=N)(=O)C)C4=C5C=CNC5=NC=C4 [AZD6738] (first compound max 1 µM, 7x7, partner max 10 µM) , please.
-0.0203

Observed Bliss excess on DG-75 (Burkitt's Lymphoma) for CN(CCO)CC[C@H](CSc1ccccc1)Nc1ccc(S(=O)(=O)NC(=O)c2ccc(N3CCC([C@@H](O)c4ccccc4-c4ccc(Cl)cc4)CC3)cc2)cc1S(=O)(=O)C(F)(F)F [AZD4320] + CCN(CCO)CCCOc1ccc2c(Nc3cc(CC(=O)Nc4cccc(F)c4)[nH]n3)ncnc2c1 [AZD2811] (first compound max 1 µM, 7x7, partner max 1 µM) , please.
-0.0224
